Values were extracted from patent US20070281992A1.

tested on: Methicillin-Susceptible Staphylococcus aureus Isolates; test: MIC assay (NCCLS broth dilution), MSSA clinical isolates; type: cell-based; settings: Staphylococcus aureus, MSSA isolate 1002, 24FEB06; read-out: Minimal Inhibitory Concentration
recorded endpoint: MIC (µg/mL)
The figure you give is taken to be in µg/mL; do not add the unit.

Looking up CN(C)[C@@H]1C(O)=C(C(N)=O)C(=O)[C@@]2(O)C(O)=C3C(=O)c4c(O)cccc4[C@@](C)(O)[C@H]3C[C@@H]12 [TE, tetracycline] , I see its MIC listed as 0.5

Looking up CN(C)c1ccc(O)c2c1C[C@H]1C[C@H]3[C@H](N(C)C)C(O)=C(C(N)=O)C(=O)[C@@]3(O)C(O)=C1C2=O [MI, minocycline] , I see its MIC listed as 0.12

Looking up CC(=O)NC[C@H]1CN(c2ccc(N3CCOCC3)c(F)c2)C(=O)O1 [LZD, linezolid] , I see its MIC listed as 2

Looking up Cc1onc(-c2ccccc2)c1C(=O)N[C@@H]1C(=O)N2[C@@H]1SC(C)(C)[C@@H]2C(=O)O [OX, oxacillin] , I see its MIC listed as 0.5

Looking up CO[C@@H]1[C@@H](OC(N)=O)[C@@H](O)[C@H](Oc2ccc3c(O)c(NC(=O)c4ccc(O)c(CC=C(C)C)c4)c(=O)oc3c2C)OC1(C)C [NB, novobiocin] , I see its MIC listed as 0.15
